Target: Dickkopf-related protein 1 (Homo sapiens)
Assay: small molecules binding DKK1 protein – biochemical, small-molecule microarray, 635 nm fluorescence scan, primary screen (AID 1106);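 note: score merges emission near 667 nm with signal to noise over three replicate slides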
Conditions: higher = more signal
Lab note: compare composite z-score against 0.5. Equal or greater, write label 1. Smaller, write label 0.

Ask | Evaluate C=CCC(OC(C)=O)[C@@H]1[C@@H](N(Cc2cc3ccccc3o2)C(=O)Cc2ccc(F)cc2)c2cc(OCCCO)ccc2N1C(=O)Cc1ccc2ccccc2c1 (stereo not given in full) : composite z-score at minimum 0.5?
Reply | label 0

Ask | Evaluate CCCCC=C[C@@H](NC(=O)OCc1ccccc1Cl)c1ccccc1 : composite z-score at minimum 0.5?
Reply | label 0

Ask | Evaluate CCCC=C(CCC)[C@@H](NC(=O)c1cccs1)c1ccc(C(=O)OC)cc1 : composite z-score at minimum 0.5?
Reply | label 0

Ask | Evaluate OCCCC1=CC(c2ccc(CN3CCCC3)cc2)N(Cc2cc3c(cc2Br)OCO3)CC1 (stereo not given) : composite z-score at minimum 0.5?
Reply | label 1

Ask | Evaluate C=CCN1C(=O)[C@]2(CCS(=O)(=O)c3ccccc3)N=C(c3ccc(OCCCO)cc3)O[C@@H]2c2ccccc21 : composite z-score at minimum 0.5?
Reply | label 0

Ask | Evaluate CCOC(=O)C[C@H]1[C@H](OC(=O)Cc2ccc3c(c2)OCO3)[C@@H](NC(=O)C2CCCCC2)c2cc(OCCCO)ccc2N1C(=O)c1ccccc1 : composite z-score at minimum 0.5?
Reply | label 0

Ask | Evaluate COc1cccc(C)c1NC(=O)O[C@H]1[C@H](OC(=O)Nc2ccc3c(c2)OCO3)[C@@H](OC(=O)Nc2ccc3c(c2)OCO3)[C@@H](OC)O[C@@H]1CO : composite z-score at minimum 0.5?
Reply | label 1

Ask | Evaluate COc1ccc([Si](C)(C)[C@@H]2[C@@H](CCO)O[C@]3(C(=O)N(Cc4ccccc4)c4ccc(N5CCOC5=O)cc43)[C@H]2C)cc1 : composite z-score at minimum 0.5?
Reply | label 0

Ask | Evaluate CC(C)N1CC=CC23O[C@@H]4C=CCCOC(=O)C4[C@H]2C(=O)N(CCCO)[C@@H]3C1=O (stereo not given in full) : composite z-score at minimum 0.5?
Reply | label 0

Ask | Evaluate CC(C)N1C(=O)c2ccccc2[C@@H](C(=O)NCCN2CCOCC2)[C@@H]1c1ccc(CO)cc1 : composite z-score at minimum 0.5?
Reply | label 0

Ask | Evaluate NCCCCCCNC(=O)[C@@H]1C[C@@H]2C(=O)N[C@@H](CCCCN)C(=O)N2[C@@H]1c1ccc(O)cc1 : composite z-score at minimum 0.5?
Reply | label 1

Ask | Evaluate C=C(/C(=C/C[C@H](OC(=O)c1ccncc1)c1ccc(CO)o1)c1cnc2ccccc2c1)C(C)C : composite z-score at minimum 0.5?
Reply | label 1

Ask | Evaluate COC(=O)C/C=C/C[C@]1(O)C(=O)N(C)c2ccccc21 : composite z-score at minimum 0.5?
Reply | label 1

Ask | Evaluate COCCOC(=O)N1C(=O)[C@@]2(c3cc(C#CC4=CCCCC4)ccc31)[C@H](C(=O)Nc1nc3ccccc3s1)[C@H]1C(=O)O[C@H](c3ccccc3)[C@H](c3ccccc3)N1[C@@H]2c1ccc(O)cc1 : composite z-score at minimum 0.5?
Reply | label 1

Ask | Evaluate CS(=O)(=O)CCOC(=O)C1=CC(CCCO)=CC(c2ccc(CN3CCCC3)cc2)N(Cc2sc3ccccc3c2Cl)C=C1C(=O)OCCS(C)(=O)=O (stereo not given) : composite z-score at minimum 0.5?
Reply | label 1

###

Experiment: growth effects on S. cerevisiae YJM789 – YJM789 clinical isolate, OD600, 24 h, basal, primary screen (AID 1089);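 note: growth of clinical yeast isolate S. cerevisiae YJM 789 seeded 1000 cells per well; test concentration not given here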
Settings: higher = more signal, called active from +8 up or from −8 down
Activity calls are given as the source filed them.
Reported Endpoint: z-score

Ask | Return z-score (reported value) for this compound: COCCOC(=O)N1C(=O)[C@@]2(c3cc(C#CC4=CCCCC4)ccc31)[C@H](C(=O)Nc1nc3ccccc3s1)[C@H]1C(=O)O[C@H](c3ccccc3)[C@H](c3ccccc3)N1[C@@H]2c1ccc(O)cc1
Reply | 0.128 (inactive)

Ask | Return z-score (reported value) for this compound: COc1ccc([Si](C)(C)[C@@H]2[C@@H](CCO)O[C@]3(C(=O)N(Cc4ccccc4)c4ccc(N5C(=O)c6cccc7cccc5c67)cc43)[C@H]2C)cc1
Reply | 0.849 (inactive)

Ask | Return z-score (reported value) for this compound: C=C(COC)/C(=C/C[C@H](OC(=O)c1ccncc1)c1ccc(CO)o1)c1cnc2ccccc2c1
Reply | 0.685 (inactive)

Ask | Return z-score (reported value) for this compound: CN(C)c1ccc(C(O)C2C=CC3C(=O)NC(=O)C3N2Nc2ccccn2)cc1 (configuration not stated)
Reply | -0.0671 (inactive)

Ask | Return z-score (reported value) for this compound: CC(C)[Si](C#C[Si](C(C)C)(C(C)C)C(C)C)(O[C@H](c1ccccc1)c1cn(Cc2ccccc2)nn1)C(C)C
Reply | 0.242 (inactive)

Ask | Return z-score (reported value) for this compound: CCCCCC1=C2CNC(C)(C(=O)OC)C=C2C(C)C1=O (configuration not stated)
Reply | 0.511 (inactive)

Ask | Return z-score (reported value) for this compound: CC[C@@H]1C=C(C(=O)O)[C@H](c2ccccc2)N1S(=O)(=O)c1ccc(C)cc1
Reply | -1.14 (inactive)

###

Kindly state composite z-score for each of the entries shown.
Target: Torsin-1A-interacting protein 2 (Homo sapiens)
Assay: small molecules binding lysate-expressed LULL1 – cell lysate, human LULL1 lysate, 635/667 nm fluorescence, primary screen (AID 1092);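 note: probe is lysate of COS7 cells overexpressing human LULL1; score merges per-feature 667 nm fluorescence with signal-to-noise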
Conditions: small-molecule microarray, hLULL1 lysate binding, 635 nm fluorescence; higher = more signal
Write the number on its own, no unit after it.

Ask | Return composite z-score (reported value) for this compound: O=C1C2C=CC(C(O)c3ccco3)N(Nc3ccccc3F)C2C(=O)N1c1ccccc1 (configuration not stated)
Reply | 2.46

Ask | Return composite z-score (reported value) for this compound: O=C(NCc1ccc(F)cc1)[C@H]1C[C@H]2C(=O)NCC(=O)N2[C@H]1c1ccc(O)cc1
Reply | 1.22

Ask | Return composite z-score (reported value) for this compound: Cc1ccc(S[C@]2(C(=O)NCCN3CCOCC3)CC(=O)N(Cc3ccccc3Cl)[C@@H]2c2ccc(CO)cc2I)cc1
Reply | 2.77

Ask | Return composite z-score (reported value) for this compound: CCOC(=O)C[C@H]1[C@H](OC(=O)c2ccc(C(=O)c3ccccc3)cc2)[C@@H](NC(=O)CC(C)C)c2cc(OCCCO)ccc2N1C(=O)c1ccccc1
Reply | 2.03

Ask | Return composite z-score (reported value) for this compound: COCCOC(=O)N1C(=O)[C@@]2(c3cc(C#CCCO)ccc31)[C@H](C(=O)Nc1nc3ccccc3s1)[C@H]1C(=O)O[C@H](c3ccccc3)[C@H](c3ccccc3)N1[C@@H]2c1ccc(O)cc1
Reply | 2.79

Ask | Return composite z-score (reported value) for this compound: COC(=O)[C@@]1(Cc2ccccc2)[C@H]2c3cc(C(=O)N(C)C)n(Cc4ccc(C)o4)c3C[C@H]2CN1C(=O)c1ccccc1
Reply | 2.93

Ask | Return composite z-score (reported value) for this compound: NCCCCCNC(=O)[C@@H]1C[C@@H]2C(=O)N[C@@H](CCCCN)C(=O)N2[C@@H]1c1ccc(O)cc1
Reply | 3.2

###

Assay: budding yeast growth modifiers under rapamycin – strain BY4716, OD600, 96 h, primary screen (AID 1091); note: test concentration not given here
Conditions: S. cerevisiae BY4716 + rapamycin, called active from +8 up or from −8 down
The source made the active and inactive calls.
# valid calls are 1.0 for active, 0.0 for inactive; nothing else

Ask | Record request — test call for [N-]=[N+]=NCc1ccccc1C[C@@]1(C(N)=O)N=C(c2ccc(OCCCO)cc2)O[C@@H]1c1ccccc1
Reply | 1.0

Ask | Record request — test call for O=C(c1ccccc1)N1C(=O)[C@]2(Cc3ccccc31)N=C(c1ccc(OCCCO)cc1)O[C@@H]2c1ccccc1
Reply | 0.0

Ask | Record request — test call for CO[C@H]1O[C@H](CO)[C@@H](OC(=O)Nc2ccc3c(c2)OCO3)[C@H](OC(=O)Nc2ccc3c(c2)OCO3)[C@@H]1OC(=O)Nc1ccc2c(c1)OCO2
Reply | 0.0

Ask | Record request — test call for CC(C)[Si]1(C(C)C)OCc2cc(-c3ccc(-c4ccc(Cl)c(Cl)c4)o3)nc(-c3ccccc3)c21
Reply | 0.0

Ask | Record request — test call for CCCCCCCCCCC(O)C1C=CC2C(=O)N(c3ccccc3)C(=O)C2N1Nc1ccc(C#N)cc1 (centres undefined)
Reply | 0.0

Ask | Record request — test call for COCCOC(=O)N1C(=O)[C@@]2(c3cc(C#CCCO)ccc31)[C@H](C(=O)Nc1nc3ccccc3s1)[C@H]1C(=O)O[C@H](c3ccccc3)[C@H](c3ccccc3)N1[C@@H]2c1ccc(O)cc1
Reply | 0.0

Ask | Record request — test call for O=C(C1N=C(c2ccc(OCCCO)cc2)N(c2ccccc2)O1)N1CCCCC1 (centres undefined)
Reply | 0.0

Ask | Record request — test call for O[C@@H](Cc1ccccc1)[C@@H](/C=C/C1CC1)N(CC#Cc1ccccc1)Cc1ccccc1Br
Reply | 0.0

Ask | Record request — test call for CCCCCN1CC=CC23O[C@@H]4/C=C\CCC(C)OC(=O)C4[C@H]2C(=O)N(C(CO)C(C)C)[C@@H]3C1=O (some centres undefined)
Reply | 0.0

Ask | Record request — test call for Cc1cc(C)c(C(O)C2C=CC3C(=O)N(c4ccccc4)C(=O)C3N2Nc2ccccc2F)c(C)c1 (centres undefined)
Reply | 0.0

Ask | Record request — test call for COCCOC(=O)N1C(=O)[C@@]2(c3cc(C#CCC(C(=O)OC)C(=O)OC)ccc31)[C@H](c1ccc(OCCO)cc1)N1[C@H](c3ccccc3)[C@H](c3ccccc3)OC(=O)[C@H]1[C@@H]2C(=O)N1CCc2cc(OC)c(OC)cc2C1
Reply | 0.0

Ask | Record request — test call for NC(=O)NCC#Cc1ccc2c(c1)[C@]1(C(=O)N2)[C@H](C(=O)N2CCN(c3ncccn3)CC2)[C@H]2C(=O)O[C@H](c3ccccc3)[C@H](c3ccccc3)N2[C@@H]1c1ccc(O)cc1
Reply | 0.0

Ask | Record request — test call for CC(CO)N1C(=O)[C@@H]2[C@H]3C(=O)OCC=C[C@H]3OC23C=CCN(Cn2nnc4ccccc42)C(=O)[C@@H]13 (some centres undefined)
Reply | 0.0

Ask | Record request — test call for CCCCCN1CC=CC23O[C@@H]4/C=C\CCCOC(=O)C4[C@H]2C(=O)N(C(C)CO)[C@@H]3C1=O (some centres undefined)
Reply | 0.0

meta.source: PubChem BioAssay
